Reference source: patent US20240228486A1

Tested on: PARylation level in MDA-MB-436
Experiment: PARPylation MSD Assay on MDA-MB-436
Type: cell-based
Conditions: Homo sapiens; MDA-MB-436 cells, 4 hours incubation with compound, electrochemiluminescent (MSD) detection of PARylation
Examples of compounds with documented IC50 follow.
The reply should be a number in nM, with the unit left off.

INSERT INTO results (compound, experimental_readout, observed) VALUES
  ('CCc1cc2ncc([S@@](=N)(=O)C3CCN(c4ccc(C(=O)NC)nc4)CC3)cc2[nH]c1=O (single isomer, unassigned)', 'IC50', 0.515);

Pending compound:
Given CCc1cc2ncc([S@](=N)(=O)C3CCN(c4ccc(C(=O)NC)nc4)CC3)cc2[nH]c1=O (single isomer, unassigned) , state its recorded IC50.
10.8
